Reference source: patent US20120115869A1

assay_metric: melting point (°C)

Examples with their reported melting point follow.
compound: CCCCC(=O)N(Cc1ccc(OC(F)(F)F)c(Cl)c1)c1cc(F)cc(-c2nnn[nH]2)c1 [Example 54]
melting point / °C: 137
//
compound: CCCC(=O)N(Cc1ccc(OC(F)(F)F)cc1)c1cc(Cl)cc(-c2nnn[nH]2)c1 [Example 55]
melting point / °C: 179

(A) CCC(=O)N(Cc1cccc(-c2ccccc2)c1)c1cccc(-c2nnn[nH]2)c1 [Example 59]
(B) CCC(=O)N(Cc1ccc(OC(F)(F)F)cc1)c1cc(Cl)cc(-c2nnn[nH]2)c1 [Example 57]
Which of the two gives a bigger number for melting point: A or B ? Could you answer with the label of the item you picked?
B
(B: 144 °C, A: 91 °C)

---

- experiment_notes: In vivo pharmacokinetic evaluation in mouse
- test_conditions: female, C57BL/6, mouse, plasma; mice, oral gavage 5 mg/Kg
assay_metric: AUC (ng·h/mL)

(I) C#Cc1cccc(CN(C(=O)CCCC)c2cc(-c3nnn[nH]3)ccc2F)c1
(II) CCC(=O)N(Cc1ccc(OC(F)(F)F)c(Cl)c1)c1cc(F)cc(-c2nnn[nH]2)c1
Select one. Lower AUC: I or II Answer by quoting the chosen item's label.
II

---

Target protein (sequence): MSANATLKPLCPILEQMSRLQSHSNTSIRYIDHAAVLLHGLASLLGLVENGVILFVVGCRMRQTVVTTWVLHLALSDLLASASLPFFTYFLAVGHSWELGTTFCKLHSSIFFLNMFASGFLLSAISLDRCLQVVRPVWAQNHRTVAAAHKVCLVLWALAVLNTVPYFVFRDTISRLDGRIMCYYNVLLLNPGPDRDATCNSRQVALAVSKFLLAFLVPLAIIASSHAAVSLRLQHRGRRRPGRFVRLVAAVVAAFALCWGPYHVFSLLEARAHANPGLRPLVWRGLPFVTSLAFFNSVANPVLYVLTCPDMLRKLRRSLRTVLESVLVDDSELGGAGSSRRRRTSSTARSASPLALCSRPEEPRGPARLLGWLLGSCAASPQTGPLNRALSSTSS
assay_metric: IC50 (µM)

input_smiles: CCC(=O)N(Cc1ccc(-c2cccc(S(=O)(=O)N(C)C)c2)cc1)c1cc(F)cc(-c2nnn[nH]2)c1
IC50 (µM): 0.125
//
input_smiles: CCCCC(=O)N(Cc1cccn1S(=O)(=O)c1ccccc1)c1cc(-c2nnn[nH]2)ccc1F
IC50 (µM): 0.051

(1) CCCCC(=O)N(Cc1ccc2c(c1)OCCO2)c1cc(-c2nnn[nH]2)ccc1F
(2) CCC(=O)N(Cc1ccc(O)cc1)c1cc(F)cc(-c2nnn[nH]2)c1
Form: Entry with minimum IC50 (choose one): 1 / 2 Returns: label corresponding to the selected item.
1
(1: 0.0042 µM, 2: 0.025 µM)

---

- experiment_notes: In vivo pharmacokinetic evaluation in mouse
- test_conditions: female, C57BL/6, mouse, plasma; mice, po 5 mg/Kg vs iv 1 mg/Kg
assay_metric: bioavailability (%)

input_smiles: C#Cc1cccc(CN(C(=O)CCCC)c2cc(-c3nnn[nH]3)ccc2F)c1
value_units: %
bioavailability: 33
--
input_smiles: CCC(=O)N(Cc1ccc(OC(F)(F)F)c(Cl)c1)c1cc(F)cc(-c2nnn[nH]2)c1
value_units: %
bioavailability: 36

---

- system_name: CRTH2 (Homo sapiens, UniProt Q9Y5Y4)
- Construct: expressed in transfected cells; host or cells: CHO cells
- experiment_notes: Cellular Dielectric Spectroscopy in CHO-CRTH2 cells
- Assay type: cell-based
- test_conditions: fixed concentration of PGD2 (EC80), read-out: IC50(μM) (CDS, antagonist)
assay_metric: IC50 (µM)

(a) CS(=O)(=O)c1ccc(CN(C(=O)c2ccccc2)c2cc(F)cc(-c3nnn[nH]3)c2)cc1
(b) C#Cc1cccc(CN(C(=O)CCCC)c2cc(-c3nnn[nH]3)ccc2F)c1
Would you let me know which has the greater IC50 value, a or b ? Return value: the label identifying the chosen record.
b
(b: 0.096 µM, a: 0.049 µM)

(P) CCCCC(=O)N(Cc1cccn1S(=O)(=O)c1ccccc1)c1cc(-c2nnn[nH]2)ccc1F
(Q) CCCCC(=O)N(Cc1ccc2c(c1)OCCO2)c1cccc(-c2nnn[nH]2)c1
(R) CCC(=O)N(Cc1ccc(S(C)(=O)=O)cc1)c1cc(F)cc(-c2nnn[nH]2)c1
Order these by IC50, descending, and give the full ranking. // respond by listing labels in the order requested
P, Q, R

---

Sequence of the target: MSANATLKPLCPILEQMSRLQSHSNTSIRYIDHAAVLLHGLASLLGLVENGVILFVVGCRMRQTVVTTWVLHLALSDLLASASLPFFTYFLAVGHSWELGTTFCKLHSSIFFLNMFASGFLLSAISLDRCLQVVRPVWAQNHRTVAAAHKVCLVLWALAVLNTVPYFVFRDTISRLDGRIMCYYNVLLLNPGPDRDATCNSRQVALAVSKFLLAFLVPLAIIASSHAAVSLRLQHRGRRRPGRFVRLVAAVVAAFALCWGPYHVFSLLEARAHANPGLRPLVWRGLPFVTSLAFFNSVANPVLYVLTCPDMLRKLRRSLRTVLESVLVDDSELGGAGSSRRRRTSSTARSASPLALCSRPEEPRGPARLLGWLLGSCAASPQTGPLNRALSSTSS
assay_metric: IC50 (µM)

Sample answers from the record:
compound: CCCCC(=O)N(Cc1ccc(OC(F)(F)F)c(Cl)c1)c1cc(F)cc(-c2nnn[nH]2)c1 [Example 54]
assay_result: 0.015
//
compound: CCC(=O)N(Cc1cccc(OC)c1)c1cc(F)cc(-c2nnn[nH]2)c1 [Example 39]
assay_result: 0.0096
//
compound: CCC(=O)N(Cc1ccc(-c2ccncc2)cc1)c1cc(F)cc(-c2nnn[nH]2)c1 [Example 89]
assay_result: 0.057
//
compound: CCC(=O)N(Cc1cccc(-c2cnoc2)c1)c1cccc(-c2nnn[nH]2)c1 [Example 62]
assay_result: 0.769

(P) CCC(=O)N(Cc1ccc(OC(F)(F)F)c(Cl)c1)c1cccc(-c2nnn[nH]2)c1 [Example 45]
(Q) CCC(=O)N(Cc1cccc(OC(C)C)c1)c1cc(F)cc(-c2nnn[nH]2)c1 [Example 75]
Rank P against Q by their IC50 values and give the higher one. Use the label to indicate which entry you chose.
P
(P: 0.083 µM, Q: 0.0071 µM)

(I) CCCCC(=O)N(Cc1ccc2c(c1)OCCO2)c1cc(-c2nnn[nH]2)c(F)cc1F [Example 10]
(II) C#Cc1cccc(CN(C(=O)CCCC)c2cc(-c3nnn[nH]3)ccc2F)c1 [Example 1]
Lab log: flag the item ( I or II ) with the smaller IC50 figure. Record your answer as the label of the chosen record.
II

(a) CCC(=O)N(Cc1cccc(C)c1)c1cccc(-c2nnn[nH]2)c1 [Example 73]
(b) CCC(=O)N(Cc1ccccc1)c1cccc(-c2nnn[nH]2)c1 [Example 30]
Sorting ascending by IC50, which comes first: a or b ? Choose, then provide that item's label.
a
(a: 0.662 µM, b: 2.25 µM)

(A) CCC(=O)N(Cc1cccc(C#CCOC)c1)c1cccc(-c2nnn[nH]2)c1 [Example 47]
(B) CS(=O)(=O)c1ccc(CN(C(=O)c2ccncc2)c2cc(F)cc(-c3nnn[nH]3)c2)cc1 [Example 106]
(C) C#Cc1cccc(CN(C(C)=O)c2cc(-c3nnn[nH]3)ccc2F)c1 [Example 2]
(D) CCC(=O)N(Cc1ccc(-c2c(C)cccc2C)cc1)c1cc(F)cc(-c2nnn[nH]2)c1 [Example 100]
Order by IC50, ascending. Returns: the labels listed in the requested order.
D, B, C, A

---

- system_name: CRTH2 (Homo sapiens)
- Construct: expressed in transfected cells; host or cells: CHO cells
- Sequence (Q9Y5Y4 1-395): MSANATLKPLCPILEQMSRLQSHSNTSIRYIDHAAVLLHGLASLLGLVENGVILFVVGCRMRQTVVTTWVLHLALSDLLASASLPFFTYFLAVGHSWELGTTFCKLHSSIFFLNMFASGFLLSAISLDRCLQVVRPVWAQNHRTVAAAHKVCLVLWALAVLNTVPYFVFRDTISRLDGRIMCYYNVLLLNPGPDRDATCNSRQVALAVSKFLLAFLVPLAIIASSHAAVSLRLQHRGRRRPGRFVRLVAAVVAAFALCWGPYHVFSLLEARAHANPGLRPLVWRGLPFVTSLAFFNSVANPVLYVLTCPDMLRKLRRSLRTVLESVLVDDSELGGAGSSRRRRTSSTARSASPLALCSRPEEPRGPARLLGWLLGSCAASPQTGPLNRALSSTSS
- experiment_notes: [35S]GTPγS binding assay on CHO-CRTH2 cell membranes
- Type: biochemical
- test_conditions: without addition of PGD2; 100% of Emax being the activity measured by the addition of 1 μM of PGD2
assay_metric: Emax (%)

input_smiles: CCC(=O)N(Cc1ccc(C(F)(F)F)cc1)c1cc(F)cc(-c2nnn[nH]2)c1
Emax, %: -8.1
--
input_smiles: CCCCC(=O)N(Cc1ccc(OC)cc1)c1cc(Cl)cc(-c2nnn[nH]2)c1
Emax, %: -9.5
--
input_smiles: CCC(=O)N(Cc1cccc(OC)c1)c1cc(F)cc(-c2nnn[nH]2)c1
Emax, %: -11.2
--
input_smiles: CCCCC(=O)N(Cc1ccc(OC(F)(F)F)cc1)c1cc(Cl)cc(-c2nnn[nH]2)c1
Emax, %: -9.9
